A collection of molecules and their measured inhibition at 0.1 µM
target: N-type calcium channel (Homo sapiens, UniProt Q00975); assay: Automated Electrophysiology Assay (QPatch-HT whole-cell patch clamp; low- and high-frequency stimulation); format: cell-based; conditions: low frequency; 0.1 μM; read-out: QPatch at Low Frequency % Inhibition
Sequence (Q00975 whole entry): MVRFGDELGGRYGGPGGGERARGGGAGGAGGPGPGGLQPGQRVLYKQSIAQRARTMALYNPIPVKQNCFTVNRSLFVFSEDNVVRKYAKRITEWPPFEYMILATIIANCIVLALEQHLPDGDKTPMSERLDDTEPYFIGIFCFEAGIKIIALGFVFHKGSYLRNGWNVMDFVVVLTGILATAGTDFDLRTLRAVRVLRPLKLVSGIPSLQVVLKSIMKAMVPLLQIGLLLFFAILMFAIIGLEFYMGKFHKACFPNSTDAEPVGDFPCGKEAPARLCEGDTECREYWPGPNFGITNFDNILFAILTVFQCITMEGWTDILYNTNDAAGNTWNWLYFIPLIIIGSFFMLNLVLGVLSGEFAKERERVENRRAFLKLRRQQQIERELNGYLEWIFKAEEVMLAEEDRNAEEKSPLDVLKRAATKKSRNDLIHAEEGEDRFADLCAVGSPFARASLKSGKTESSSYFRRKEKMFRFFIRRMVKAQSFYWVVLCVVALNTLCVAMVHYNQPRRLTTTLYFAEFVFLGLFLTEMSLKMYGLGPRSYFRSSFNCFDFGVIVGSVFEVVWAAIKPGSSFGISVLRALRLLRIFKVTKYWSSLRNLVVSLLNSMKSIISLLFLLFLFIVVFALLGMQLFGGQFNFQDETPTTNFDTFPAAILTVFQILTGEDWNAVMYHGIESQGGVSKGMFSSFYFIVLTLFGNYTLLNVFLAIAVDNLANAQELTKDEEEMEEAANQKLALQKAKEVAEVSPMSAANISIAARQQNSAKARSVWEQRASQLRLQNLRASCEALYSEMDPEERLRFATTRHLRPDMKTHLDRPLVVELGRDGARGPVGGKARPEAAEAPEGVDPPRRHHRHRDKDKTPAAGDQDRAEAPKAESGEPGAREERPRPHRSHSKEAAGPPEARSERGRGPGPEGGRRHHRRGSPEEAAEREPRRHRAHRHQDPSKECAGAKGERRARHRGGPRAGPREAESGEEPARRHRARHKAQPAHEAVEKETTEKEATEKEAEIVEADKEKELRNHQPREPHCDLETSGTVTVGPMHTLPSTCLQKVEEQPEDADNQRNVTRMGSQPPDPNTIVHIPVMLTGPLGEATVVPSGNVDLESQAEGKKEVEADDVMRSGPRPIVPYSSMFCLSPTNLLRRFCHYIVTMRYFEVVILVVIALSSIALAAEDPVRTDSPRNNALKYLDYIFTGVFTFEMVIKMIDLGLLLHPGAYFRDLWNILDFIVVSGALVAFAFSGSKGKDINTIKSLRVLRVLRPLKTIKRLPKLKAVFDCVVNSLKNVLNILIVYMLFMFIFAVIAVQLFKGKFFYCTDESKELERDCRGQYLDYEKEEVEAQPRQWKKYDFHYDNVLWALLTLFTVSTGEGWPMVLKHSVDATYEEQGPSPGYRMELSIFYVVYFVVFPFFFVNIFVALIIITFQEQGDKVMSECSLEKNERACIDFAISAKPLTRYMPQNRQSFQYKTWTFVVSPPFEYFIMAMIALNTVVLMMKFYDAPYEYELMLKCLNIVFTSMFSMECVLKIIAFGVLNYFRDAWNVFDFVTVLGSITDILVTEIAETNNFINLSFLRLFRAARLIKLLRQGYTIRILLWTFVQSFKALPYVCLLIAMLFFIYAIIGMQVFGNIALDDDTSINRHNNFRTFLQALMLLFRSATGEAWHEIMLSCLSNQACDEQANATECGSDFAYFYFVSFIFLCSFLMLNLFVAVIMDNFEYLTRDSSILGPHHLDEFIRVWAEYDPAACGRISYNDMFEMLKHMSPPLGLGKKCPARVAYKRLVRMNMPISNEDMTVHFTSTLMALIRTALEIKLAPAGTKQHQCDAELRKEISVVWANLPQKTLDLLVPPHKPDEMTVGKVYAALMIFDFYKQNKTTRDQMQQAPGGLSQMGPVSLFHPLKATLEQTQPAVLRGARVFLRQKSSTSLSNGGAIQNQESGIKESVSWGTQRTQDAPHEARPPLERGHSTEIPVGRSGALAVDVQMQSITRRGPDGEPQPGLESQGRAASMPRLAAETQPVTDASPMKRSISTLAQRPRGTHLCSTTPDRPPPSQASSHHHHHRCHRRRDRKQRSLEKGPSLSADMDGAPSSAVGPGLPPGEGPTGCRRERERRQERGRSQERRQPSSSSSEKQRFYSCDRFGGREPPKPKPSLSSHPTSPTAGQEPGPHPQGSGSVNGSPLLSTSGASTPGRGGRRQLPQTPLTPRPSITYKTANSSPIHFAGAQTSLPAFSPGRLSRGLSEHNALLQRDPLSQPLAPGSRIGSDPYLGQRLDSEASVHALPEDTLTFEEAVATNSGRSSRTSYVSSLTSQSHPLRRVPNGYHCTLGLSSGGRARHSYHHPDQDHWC
Sequence (P54284 whole entry partner): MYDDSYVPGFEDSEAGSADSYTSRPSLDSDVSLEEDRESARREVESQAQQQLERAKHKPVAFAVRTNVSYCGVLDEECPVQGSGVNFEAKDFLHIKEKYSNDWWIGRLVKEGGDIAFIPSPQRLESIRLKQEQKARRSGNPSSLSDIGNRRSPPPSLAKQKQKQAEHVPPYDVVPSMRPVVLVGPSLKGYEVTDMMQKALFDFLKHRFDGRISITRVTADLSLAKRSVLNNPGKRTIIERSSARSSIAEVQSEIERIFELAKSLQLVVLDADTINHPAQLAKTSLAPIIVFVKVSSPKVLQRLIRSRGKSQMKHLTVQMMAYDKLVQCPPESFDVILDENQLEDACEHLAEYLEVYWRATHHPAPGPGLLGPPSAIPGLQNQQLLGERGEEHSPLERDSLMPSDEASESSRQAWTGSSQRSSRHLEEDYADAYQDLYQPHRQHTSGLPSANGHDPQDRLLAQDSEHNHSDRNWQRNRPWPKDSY
Sequence (P54289 25-946 partner limits assumed): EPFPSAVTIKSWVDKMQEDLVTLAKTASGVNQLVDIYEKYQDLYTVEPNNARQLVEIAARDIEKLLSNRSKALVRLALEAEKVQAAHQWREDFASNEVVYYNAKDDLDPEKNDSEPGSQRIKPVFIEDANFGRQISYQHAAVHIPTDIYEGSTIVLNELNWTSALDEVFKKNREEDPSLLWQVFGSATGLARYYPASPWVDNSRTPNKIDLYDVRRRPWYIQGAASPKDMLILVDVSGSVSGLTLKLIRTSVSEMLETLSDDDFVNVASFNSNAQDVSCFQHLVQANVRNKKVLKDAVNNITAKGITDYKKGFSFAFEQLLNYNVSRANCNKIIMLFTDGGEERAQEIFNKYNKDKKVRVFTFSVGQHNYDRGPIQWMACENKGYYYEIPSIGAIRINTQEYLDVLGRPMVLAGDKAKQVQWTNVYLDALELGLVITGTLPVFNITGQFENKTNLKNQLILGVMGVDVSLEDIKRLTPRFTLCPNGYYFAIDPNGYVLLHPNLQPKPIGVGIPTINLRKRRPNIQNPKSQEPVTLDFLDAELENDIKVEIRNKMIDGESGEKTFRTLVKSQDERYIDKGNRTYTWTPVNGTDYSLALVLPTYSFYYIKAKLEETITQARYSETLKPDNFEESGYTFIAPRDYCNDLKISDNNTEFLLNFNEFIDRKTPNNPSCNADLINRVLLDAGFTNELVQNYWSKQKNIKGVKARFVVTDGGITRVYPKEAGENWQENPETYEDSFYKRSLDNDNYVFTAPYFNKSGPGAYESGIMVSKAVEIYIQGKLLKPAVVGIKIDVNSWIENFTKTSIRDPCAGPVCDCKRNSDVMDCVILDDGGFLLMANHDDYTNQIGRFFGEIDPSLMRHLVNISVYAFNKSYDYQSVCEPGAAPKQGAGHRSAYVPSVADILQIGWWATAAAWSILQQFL
Sequence (P54289 947-1103 partner limits assumed): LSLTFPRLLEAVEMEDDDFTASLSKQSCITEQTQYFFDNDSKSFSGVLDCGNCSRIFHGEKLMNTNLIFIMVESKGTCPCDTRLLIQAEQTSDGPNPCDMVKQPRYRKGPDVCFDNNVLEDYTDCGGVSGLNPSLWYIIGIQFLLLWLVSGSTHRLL
Field format: number, assumed %, no unit text.

# molecule CCOc1ccccc1-n1nc2c(c1-c1ccc(Cl)cc1)C[C@@H](NS(=O)(=O)C(C)C)C2 ; its inhibition at 0.1 µM = 42

# molecule CCOc1ccccc1-n1nc2c(c1-c1ccc(Cl)cc1)CC(NS(=O)(=O)N(C)C)C2 (centres unmarked) ; its inhibition at 0.1 µM = 15

# molecule COc1ccccc1-n1nc2c(c1-c1ccc(Cl)cc1)CC1(C2)O[C@@H](C)[C@@H](C)O1 (some centres unmarked) ; its inhibition at 0.1 µM = 12

# molecule CCOc1ccccc1-n1nc2c(c1-c1ccc(Cl)cc1)CC(N(C)S(=O)(=O)N(C)C)C2 (centres unmarked) ; its inhibition at 0.1 µM = 52

# molecule CCC(CC)C(=O)O[C@H]1Cc2nn(-c3ccccc3OC)c(-c3ccc(Cl)cc3)c2C1 ; its inhibition at 0.1 µM = 12

# molecule CCOc1ccccc1-n1nc2c(c1-c1ccc(Cl)cc1)C[C@@H](NC(=O)C(F)(F)F)C2 ; its inhibition at 0.1 µM = 60

Continuing:
# molecule COc1ccccc1-n1nc2c(c1-c1ccc(C#N)cc1)CC1(C2)OC(C)(C)C(C)(C)O1 ; its inhibition at 0.1 µM = -5

# molecule COc1ccccc1-n1nc2c(c1-c1ccc(Cl)cc1)C[C@H](OCC(C)C)C2 ; its inhibition at 0.1 µM = -5

# molecule COc1ccccc1-n1nc2c(c1-c1ccc(Cl)cc1)CC(N1CCC(F)(F)C1)C2 (centres unmarked) ; its inhibition at 0.1 µM = 2

These measurements were taken from patent US8853418B2.
